- Assay System: Human recombinant S1PR3 lysophospholipid receptor membrane (Homo sapiens)
- Sequence (Q99500 whole entry): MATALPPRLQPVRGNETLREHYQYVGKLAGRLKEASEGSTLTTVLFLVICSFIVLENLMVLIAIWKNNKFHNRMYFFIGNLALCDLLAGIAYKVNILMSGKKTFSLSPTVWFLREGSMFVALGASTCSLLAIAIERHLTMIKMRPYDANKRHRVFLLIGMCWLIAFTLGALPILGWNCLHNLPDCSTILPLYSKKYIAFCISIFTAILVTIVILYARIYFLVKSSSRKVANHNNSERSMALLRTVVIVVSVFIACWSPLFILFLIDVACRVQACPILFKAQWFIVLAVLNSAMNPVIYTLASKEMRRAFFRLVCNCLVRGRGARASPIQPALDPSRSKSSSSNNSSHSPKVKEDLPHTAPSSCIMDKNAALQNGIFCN
- Assay Method Text: [^32P]S1P competitive binding assay, S1PR3
Endpoint Label: IC50

Complete the entry with IC50 for COc1ccc(NC(=O)Cn2c(=O)c3ccccc3n(CC(=O)Nc3cc(I)c(OC)cc3OC)c2=O)cc1
> 1000 nM
